- Tested on: NOMO1
- experimental-protocol: cell viability relative to DMSO control; higher = less cytotoxic
- experimental-parameters: RPMI 5 mM glucose + 10% FBS; 48 h; 0.0632 µM
Sorting guide: entries reporting cell viability beneath 90% go in the yes (1) pile, the rest go in the no (0) pile.

1. C/C=C(/C)C(=O)O[C@H]1C(C)=C2[C@H]([C@@H]1OC(=O)CCCCCCC)[C@@](C)(OC(C)=O)C[C@H](OC(=O)CCC)[C@@]1(O)[C@H]2OC(=O)[C@@]1(C)O | no (0)
2. C#Cc1cccc(Nc2ncnc3cc(OCCOC)c(OCCOC)cc23)c1 | no (0)
3. OC[C@H]1O[C@@H](O[C@@H]2[C@@H](CO)O[C@](O)(CO)[C@H]2O)[C@H](O)[C@@H](O)[C@H]1O | no (0)
4. CCCCn1c(=O)n(Cc2ccccc2F)c(=O)c2nc(Cc3ccc(NC(C)=O)cc3)[nH]c21 | yes (1)
5. Cl.Cl.Cl.O[C@@H](COc1cccc2ncccc12)CN1CCN([C@@H]2c3ccccc3[C@@H]3[C@H](c4ccccc42)C3(F)F)CC1 | no (0)

###

Collected cell viability values appear next to each entry.
- Test system: P12-Ichikawa
- experimental-protocol: cell viability relative to DMSO control; higher = less cytotoxic
- experimental-parameters: HPLM + 10% dialyzed FBS; 48 h; 1.71 µM
readout-label: cell viability (%)

1) C=C(C)[C@@H]1CC[C@]2(C(=O)O)CC[C@]3(C)[C@H](CC[C@@H]4[C@@]5(C)CC[C@H](O)C(C)(C)[C@@H]5CC[C@]43C)[C@@H]12 | 103
2) CCC1(C)CC(=O)NC1=O (stereo not given) | 102
3) OC1=C(O)C2=C(\C=C/C(=O)O2)C=C1 | 117
4) CC1=C(/C=C/C(C)=C/C=C/C(C)=C/C=C/C=C(C)/C=C/C=C(C)/C=C/C2=C(C)CCCC2(C)C)C(C)(C)CCC1 | 107
5) CNC(=O)c1ccc(-c2cnc3ncc(Cc4ccc5ncccc5c4)n3n2)cc1F | 120
6) CN[S+](=O)([O-])Cc1ccc2[nH]cc(CCN(C)C)c2c1 | 123
7) O=C([O-])C(O)Cc1ccc(O)c(O)c1 (stereo not given) | 93.7
8) Cl.Cl.Cl.O[C@@H](COc1cccc2ncccc12)CN1CCN([C@@H]2c3ccccc3[C@@H]3[C@H](c4ccccc42)C3(F)F)CC1 | 83.8
9) Cc1ccccc1C(C(=O)NC1CCCCC1)N(C(=O)Cn1ccnc1C)c1cccc(F)c1 (stereo not given) | 104
10) C=CC(=O)Nc1cccc(Oc2nc(Nc3ccc(N4CCN(C)CC4)cc3)ncc2Cl)c1 | 113
11) Cc1nc(NC(=O)N2CCC[C@H]2C(N)=O)sc1-c1ccnc(C(C)(C)C(F)(F)F)c1 | 87.6
12) CC(=O)Nc1ccc(OC[C@](C)(O)C(=O)Nc2ccc([N+](=O)[O-])c(C(F)(F)F)c2)cc1 | 88.6
13) CC(C)[C@@H](N(CCCN)C(=O)C1=CC=C(C)C=C1)C/2=N/C3=CC(=CC=C3C(=O)N2CC4=CC=CC=C4)Cl | 7.66
14) COC1CCC(CC1)N(C(=O)C2CCC(C)CC2)C3=C(SC(=C3)\C4=C\CCCC4)C(O)=O (stereo not given) | 104
15) CN(C)c1ccc(O)c2c1C[C@H]1C[C@H]3[C@H](N(C)C)C(O)=C(C(N)=O)C(=O)[C@@]3(O)C(O)=C1C2=O | 99.9
16) OC1=CC=C(C=C1)\C2=C\OC3=C(C=CC(=C3)O)C2=O | 99.2
17) COc1nccc(-c2c(-c3ccc(F)cc3)ncn2C2CCNCC2)n1 | 100
18) COc1ccc(-c2cc3nccn3c(Nc3ncccc3C(N)=O)n2)cc1OC | 115
19) Cc1c(CN2CCN(C(=O)[C@H](C)O)CC2)sc2c(N3CCOCC3)nc(-c3cnc(N)nc3)nc12 | 69.3
20) COC1=NC(=NC(=C1N\C2=N\CCN2)Cl)C | 95
21) C[C@]\12CC[C@H](O)CC1=C/CC3C2CC[C@@]\4(C)C3C\C=C4[N]5C=NC6=C5C=CC=C6 (stereo not given in full) | 104
22) Nc1ccccc1NC(=O)c1ccc(CNC(=O)OCc2cccnc2)cc1 | 73.4
23) C\C1=C\C(=O)OC2=C1C=CC(=C2)O | 107
24) COc1cnc(N[S+](=O)([O-])c2ccc(N)cc2)nc1 | 126
25) O=C(OC)[C@]12CC[C@@]3(C)[C@]4(C)CC[C@H]5[C@@](C)(C)C(=O)C(=C[C@]5(C)C4=CC(=O)[C@@H]3[C@@H]2C[C@](C)(C)CC1)C#N | 97.5
26) CC(C)OC(=O)OCOP(=O)(CO[C@H](C)Cn1cnc2c(N)ncnc21)OCOC(=O)OC(C)C.O=C(O)C=CC(=O)O | 128
27) CO[C@H]1/C=C/O[C@@]2(C)Oc3c(C)c(O)c4c(O)c(c5c(nc6cc(C)ccn65)c4c3C2=O)NC(=O)/C(C)=C\C=C\[C@H](C)[C@H](O)[C@@H](C)[C@@H](O)[C@@H](C)[C@H](OC(C)=O)[C@@H]1C | 102
28) CC(C)NCC(O)COc1ccc(COCCOC(C)C)cc1 (stereo not given) | 96.5
29) CC[C@H](CC#N)OC(=O)N[C@@H](C)c1cccc(NC(=O)Nc2ccc(-c3cnco3)c(OC)c2)c1 | 74.9
30) Oc1ccc2c3c1O[C@H]1c4[nH]c5c(c4C[C@@]4(O)[C@@H](C2)N(CC2CC2)CC[C@]314)C[C@@]1(O)[C@H]2Cc3ccc(O)c4c3[C@@]1(CCN2CC1CC1)[C@H]5O4 | 121
31) C[C@H](NC(=O)/C(C#N)=C/c1cccc(Br)n1)c1ccccc1 | 45.1
32) CC/1=C/C(=O)N(O)/C(=C1)C2CCCCC2 | 127
33) CCN(CC)CC#CCOC(=O)C(O)(c1ccccc1)C1CCCCC1 (stereo not given) | 117
34) ClC1=C(N\C2=N\CCN2)C3=NSN=C3C=C1 | 115
35) COC1=CC2=NC=CC(=C2C=C1)OC3=CN=C(NC(=O)C/4=C(C)/N(CC(C)(C)O)N(C4=O)C5=CC=CC=C5)C=C3 | 91.6

###

Listed here: items and their measured cell viability.
- Test system: SEM cells
- experimental-protocol: cell viability relative to DMSO control; higher = less cytotoxic
- experimental-parameters: HPLM + 10% dialyzed FBS; 48 h; 0.00234 µM
readout-label: cell viability (%)

1. COC1CCC(CC1)N(C(=O)C2CCC(C)CC2)C3=C(SC(=C3)\C4=C\CCCC4)C(O)=O (configuration not stated) | 120
2. CC[C@H](CC#N)OC(=O)N[C@@H](C)c1cccc(NC(=O)Nc2ccc(-c3cnco3)c(OC)c2)c1 | 98.7
3. CC\1=C/C=C\C=[N]1[Pt](N)(Cl)Cl | 79.2
4. CCCCCCCCCCCCCCCCCCCCCCO | 95
5. CCC[C@H](NC(=O)/C(C#N)=C/c1cccc(Br)n1)c1ccccc1 | 125
6. CN(C)c1ccc(O)c2c1C[C@H]1C[C@H]3[C@H](N(C)C)C(O)=C(C(N)=O)C(=O)[C@@]3(O)C(O)=C1C2=O | 98.3
7. CC(=O)O[C@H]1C[C@@H]2CC[C@@H]3[C@H](CC[C@@]4(C)[C@H]3C[C@H]([N+]3(C)CCCCC3)[C@@H]4OC(C)=O)[C@@]2(C)C[C@@H]1[N+]1(C)CCCCC1 | 110

###

- Tested on: NOMO1
- experimental-protocol: cell viability relative to DMSO control; higher = less cytotoxic
- experimental-parameters: RPMI 5 mM glucose + 10% dialyzed FBS; 48 h; 0.0632 µM
cell viability values for the compounds below.
readout-label: cell viability (%)

1. CC(C)NCC(O)COc1ccc(COCCOC(C)C)cc1 (centres undefined) | 129
2. c1cncc(CN2CCC(n3ncc4c(N5CCOCC5)nc(-c5ccc6[nH]ccc6c5)nc43)CC2)c1 | 86.2
3. Cc1ccc(NC(=O)c2ccc(CN3CCN(C)CC3)cc2)cc1Nc1nc(-c2cccnc2)cs1 | 93.4
4. [NH2][Pt]1([NH2])[O]CC(=O)[O]1 | 93.2

###

cell viability: recorded values
- System: SEM cells
- experimental-protocol: cell viability relative to DMSO control; higher = less cytotoxic
- experimental-parameters: RPMI 5 mM glucose + 10% dialyzed FBS; 48 h; 0.00234 µM
readout-label: cell viability (%)

1) C#Cc1cccc(Nc2ncnc3cc(OCCOC)c(OCCOC)cc23)c1 | 104
2) CCc1cncnc1N1CCN(Cc2nc3cc(C(F)(F)F)ccc3[nH]2)CC1 | 112
3) NCC1(CC(=O)O)CCCCC1 | 122
4) COC1=CC2=NC=CC(=C2C=C1)OC3=CN=C(NC(=O)C/4=C(C)/N(CC(C)(C)O)N(C4=O)C5=CC=CC=C5)C=C3 | 82.1
5) CCN(CC)CC#CCOC(=O)C(O)(c1ccccc1)C1CCCCC1 (centres undefined) | 112
6) COC1=CC=CC=C1C2=CC=CC(=C2)C/3=C(O)/C4=CC(=C(Cl)C=C4NC3=O)C#N | 102
7) CC1CCC(C(=O)N(c2cc(C#CC(C)(C)C)sc2C(=O)O)C2CCC(O)CC2)CC1 (centres undefined) | 106
8) COc1cc2c(cc1-c1c(C)noc1C)ncc1[nH]c(=O)n([C@H](C)c3ccccn3)c12 | 94.8
9) O=NN(CCCl)C(=O)NCCCl | 88.3
10) CN[S+](=O)([O-])Cc1ccc2[nH]cc(CCN(C)C)c2c1 | 86
11) O=NN(CCCl)C(=O)NC1CCCCC1 | 86.1
12) CCc1cc(Nc2nccc(-c3c(-c4ccc(OC)c(C(=O)Nc5c(F)cccc5F)c4)nc4ccccn34)n2)c(OC)cc1N1CCC(N2CCN([S+](C)(=O)[O-])CC2)CC1 | 78
13) OC(=O)C1=CC=C(NC2=NC3=C(C\N=C(/C4=CC(=CC=C34)Cl)C5=C(F)C=CC=C5F)C=N2)C=C1 | 98.5
14) CC\1=C(C(\N=C(/N1)C2=CC(=NC=C2)Cl)C3=C(F)C=C(Cl)C=C3)/C(=O)NC4=C(F)C=C5[NH]N=CC5=C4 (centres undefined) | 90.3

Values from the supplement of paper PMC11451515
